Target: human recombinant serotonin (5-Hydroxytryptamine) 5-HT6 receptor (Homo sapiens, UniProt P50406)
Construct: expressed in transfected cells; host or cells: HeLa
Sequence (P50406 whole entry): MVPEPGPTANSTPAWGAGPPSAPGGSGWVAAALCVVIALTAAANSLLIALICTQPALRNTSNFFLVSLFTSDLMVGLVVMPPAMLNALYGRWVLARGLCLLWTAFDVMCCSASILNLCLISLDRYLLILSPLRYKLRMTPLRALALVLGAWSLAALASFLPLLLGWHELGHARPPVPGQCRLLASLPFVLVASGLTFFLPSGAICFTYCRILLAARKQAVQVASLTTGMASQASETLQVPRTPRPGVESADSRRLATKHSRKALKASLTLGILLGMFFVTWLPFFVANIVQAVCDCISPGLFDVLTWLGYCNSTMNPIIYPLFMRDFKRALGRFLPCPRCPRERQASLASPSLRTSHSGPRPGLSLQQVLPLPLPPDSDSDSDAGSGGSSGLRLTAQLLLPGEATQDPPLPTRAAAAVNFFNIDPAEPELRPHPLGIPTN
Assay: Serotonin 5-HT6 radioligand binding ([3H]LSD)
Conditions: compound at 0.1 μM; read-out: Inhibition of ligand binding, Serotonin 5-HT6 (percent inhibition of specific binding)
# maps each entry to its inhibition at 0.1 µM
Don't forget the unit after the number, please.

Example entries begin here.
>  <structureNotation>
Cc1ccc2c(c1)c1c(n2-c2ccc(-c3cncc4ccccc34)cn2)CCN(C)C1

>  <measuredValue>
6%

$$$$
>  <structureNotation>
CN1CCc2c(c3cc(Cl)ccc3n2-c2cscc2-c2ccccc2)C1

>  <measuredValue>
61%

$$$$
>  <structureNotation>
Cc1cc(C)c2c(c1)c1c(n2-c2cscc2-c2ccncc2)CCN(C)C1

>  <measuredValue>
93%

$$$$
>  <structureNotation>
CNC(=O)c1ccc(-c2ccccc2-n2c3c(c4cc(C)ccc42)CN(C)CC3)cc1

>  <measuredValue>
3%

$$$$
>  <structureNotation>
CNC(=O)c1cccc(-c2cscc2-n2c3c(c4cc(C)ccc42)CN(C)CC3)c1

>  <measuredValue>
7%

$$$$
>  <structureNotation>
CNC(=O)c1ccc(-c2cscc2-n2c3c(c4cc(C)ccc42)CN(C)CC3)cn1

>  <measuredValue>
21%

$$$$
>  <structureNotation>
Cc1cc(C)c2c(c1)c1c(n2-c2cccc(-c3ccncc3)c2)CCN(C)C1

>  <measuredValue>
15%

$$$$

Q. Hello, please tell me recorded inhibition at 0.1 µM for this one: Cc1ccc2c(c1)c1c(n2-c2ccsc2)CCN(C)C1
A. 82%

All figures here come from patent US9187471B2.
